Listed below: melting point values for each entry.
quantity-name: melting point

compound: COc1ccc(CSCC(C)C(=O)O)cc1 (centres undefined)
result: 74 to 82 °C
//
compound: CC(C)(C)OC(=O)Nc1ccsc1C(=O)O
result: 168 to 169 °C
//
compound: N=C(NCCCc1c[nH]cn1)N[N+](=O)[O-]
result: 156 to 158 °C
//
compound: O=c1[nH]c(-c2c[nH]c3ccccc23)nc2ccc(N3CCCCC3)cc12
result: > 300 °C
//
compound: Cc1noc(NS(=O)(=O)c2ccc(NC(=O)CN)cc2-c2ccc(CC(C)C)cc2)c1C
result: 135 to 138 °C
//
compound: CS(=O)(=O)N1CCN([C@@H](CNS(=O)(=O)c2ccc(OCc3noc4ccccc34)cc2)C(=O)NO)CC1
result: 107 °C
//
compound: CCN1C(=O)C(C)(C)CCc2c1ccc(Nc1ncc(Cl)c(N[C@@H]3CCCC[C@H]3NS(C)(=O)=O)n1)c2OC
result: 123 to 126 °C
//
compound: COC(=O)c1cc(N)c(F)cc1Cl
result: 76 to 78 °C
//
compound: COc1ccc2ccc(C(=O)CNC(=O)Cc3ccccc3)cc2c1
result: 148 to 150 °C
